# Test system: mannose isomerase
# ASSAY_PROTOCOL: mannose isomerase activity of the enzyme of the invention (optimum conditions, substrates, inhibitors)
# Type: biochemical, Pseudomonas sp. AM-9582
# Procedure: It is active in a pH range from about 6 to 11, but the optimum pH is about 8 (under the reaction condition of 50° C. for 30 minutes, in 0.1M phosphate buffer). […] Into 0.5 ml of a 0.1M phosphate buffer (pH 7.0) containing 0.2M mannose dissolved therein is added a suitable amount of the enzyme, the total volume is made up with water to 1.0 ml, and the reaction mixture is incubated at 50° C. The amount of fructose formed is determined by the cysteine-carbazole method. […]
OBSERVATION_TYPE: Substrate specificity (activity of the enzyme on the sugar)

> print(dat)
                                    compound    observed.result
 1  O=C[C@H](O)[C@@H](O)[C@H](O)[C@H](O)CO [D-glucose]  not substantially
 2  O=C[C@H](O)[C@H](O)[C@H](O)CO [D-ribose]  not substantially
 3  O=C[C@@H](O)[C@@H](O)[C@H](O)CO [D-lyxose]             active
 4  O=C[C@@H](O)[C@H](O)[C@H](O)CO [D-arabinose]  not substantially
 5  C[C@H](O)[C@@H](O)[C@@H](O)[C@H](O)C=O [L-fucose]  not substantially
 6  O=C[C@H](O)[C@@H](O)[C@H](O)CO [D-xylose]  not substantially
 7  O=C[C@@H](O)[C@@H](O)[C@H](O)[C@H](O)CO [D-mannose]             active
 8  O=C[C@@H](O)[C@H](O)[C@@H](O)CO [L-xylose]  not substantially
 9  C[C@H](O)[C@H](O)[C@@H](O)[C@@H](O)C=O [L-rhamnose]  not substantially
10  C[C@@H](O)[C@@H](O)[C@H](O)[C@H](O)C=O [D-rhamnose]  not substantially
11  O=C[C@H](O)[C@@H](O)[C@@H](O)CO [L-arabinose]  not substantially
12  C[C@@H](O)[C@H](O)[C@H](O)[C@@H](O)C=O [D-fucose]  not substantially
